- tested on: Platelet-derived growth factor receptor alpha (Homo sapiens)
- measurement parameters: at 10 µM
Each entry below lists one item and its recorded residual activity value.
measured endpoint: residual activity (%)

> print(dat)
                                 cpd.smiles  endpoint.unit  recorded.result
1      COc1ccc(-c2cnc3c(-c4ccsc4)cnn3c2)cc1              %               92
2  COc1cc2nccc(Oc3ccc(NC(=S)NC(=O)c4ccccc4C)cc3)c2cc1OC              %                2
3                   Nc1ncnc2c1cnn2-c1ccccc1              %              101
4  O=C1NC(=O)C(c2c[nH]c3ccccc23)=C1c1c[nH]c2ccccc12              %               77

* * *

- tested on: SRSF protein kinase 3 (Homo sapiens)
- measurement parameters: at 10 µM
- Description: Millipore: Percentage of residual kinase activity of SRPK3 at 10uM relative to control. Control inhibitor: Phosphoric acid* at 0.3uM. Buffer: 8 mM MOPS pH 7.0, 0.2 mM EDTA
Rule: measured residual activity below 80% gets Fulfilled; anything equal to or greater than 80% gets Not fulfilled.

> print(dat)
                                   compound  qualitative.label
1  Oc1cccc(-c2nc(N3CCOCC3)c3oc4ncccc4c3n2)c1      Not fulfilled
2  O=C1Nc2ccc(Cl)cc2/C1=C/c1cc(Cl)c(O)c(Cl)c1          Fulfilled
3  Nc1nc(Nc2ccc(S(N)(=O)=O)cc2)nn1C(=O)c1c(F)cccc1F          Fulfilled
4  Nc1ncnc2c1c(-c1ccc(Oc3ccccc3)cc1)cn2C1CCCC1      Not fulfilled
5  CSc1nc(-c2ccc(F)cc2)c(-c2ccnc(NC(C)c3ccccc3)c2)[nH]1 (stereo unspecified)      Not fulfilled
6  NCCNc1ncc(C(N)=O)c(Nc2cccc(C(F)(F)F)c2)n1          Fulfilled
7  O=C1C(Cl)=C(N2C(=O)CCC2=O)C(=O)c2ccccc21      Not fulfilled
8           Nc1ncnc2[nH]nc(Nc3ccc(F)cc3)c12          Fulfilled
9  O=C1NC(=O)C(c2c[nH]c3ccccc23)=C1c1c[nH]c2ccccc12          Fulfilled

* * *

# reported residual activity; entries follow
- tested on: Macrophage-stimulating protein receptor (Homo sapiens) (UniProt Q04912)
- Sequence (Q04912 25-304 limits assumed): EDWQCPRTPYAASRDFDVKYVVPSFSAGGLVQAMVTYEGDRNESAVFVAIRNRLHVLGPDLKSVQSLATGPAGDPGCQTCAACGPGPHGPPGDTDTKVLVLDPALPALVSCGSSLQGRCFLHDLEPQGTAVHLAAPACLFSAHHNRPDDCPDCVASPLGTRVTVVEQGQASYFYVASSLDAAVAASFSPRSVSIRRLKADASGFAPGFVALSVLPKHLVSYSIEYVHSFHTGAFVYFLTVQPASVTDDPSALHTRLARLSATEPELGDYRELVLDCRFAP
- Sequence (Q04912 310-1400 limits assumed): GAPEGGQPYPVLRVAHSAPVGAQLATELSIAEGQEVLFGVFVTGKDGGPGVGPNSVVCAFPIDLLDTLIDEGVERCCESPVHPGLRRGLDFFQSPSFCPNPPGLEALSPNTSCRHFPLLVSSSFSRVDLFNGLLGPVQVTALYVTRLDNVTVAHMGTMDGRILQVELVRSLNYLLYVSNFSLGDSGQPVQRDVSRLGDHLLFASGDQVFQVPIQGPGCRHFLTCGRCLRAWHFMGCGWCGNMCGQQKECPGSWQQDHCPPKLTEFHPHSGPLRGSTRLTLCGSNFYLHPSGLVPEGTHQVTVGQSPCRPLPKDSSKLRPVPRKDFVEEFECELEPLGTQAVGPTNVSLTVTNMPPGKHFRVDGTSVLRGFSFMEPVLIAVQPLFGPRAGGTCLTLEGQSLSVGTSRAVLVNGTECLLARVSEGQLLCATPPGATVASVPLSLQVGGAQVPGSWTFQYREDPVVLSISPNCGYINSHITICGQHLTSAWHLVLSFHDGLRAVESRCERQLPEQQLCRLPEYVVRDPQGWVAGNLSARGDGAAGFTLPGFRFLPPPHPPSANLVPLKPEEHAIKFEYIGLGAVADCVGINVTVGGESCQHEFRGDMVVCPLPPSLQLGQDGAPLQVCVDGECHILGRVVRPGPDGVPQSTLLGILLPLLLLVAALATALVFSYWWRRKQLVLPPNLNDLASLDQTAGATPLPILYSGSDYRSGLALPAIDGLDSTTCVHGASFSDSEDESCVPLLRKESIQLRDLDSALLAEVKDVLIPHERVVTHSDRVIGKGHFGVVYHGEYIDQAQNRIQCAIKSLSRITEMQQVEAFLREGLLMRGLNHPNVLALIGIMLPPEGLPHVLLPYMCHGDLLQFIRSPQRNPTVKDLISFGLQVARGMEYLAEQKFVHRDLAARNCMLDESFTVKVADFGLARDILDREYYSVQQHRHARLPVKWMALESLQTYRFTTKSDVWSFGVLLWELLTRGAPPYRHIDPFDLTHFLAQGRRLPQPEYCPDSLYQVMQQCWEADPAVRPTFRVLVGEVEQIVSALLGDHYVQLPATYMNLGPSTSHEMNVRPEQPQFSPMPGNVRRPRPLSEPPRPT
- measurement parameters: at 10 µM
measured endpoint: residual activity (%)

> print(dat)
                                  cpd.smiles  endpoint.unit  recorded.result
 1  CC(C)[C@H](CO)Nc1nc(Nc2cc(N)cc(Cl)c2)c2ncn(C(C)C)c2n1              %               62
 2  CC(C)(C)n1nc(Cc2cccc3ccccc23)c2c(N)ncnc21              %               77
 3  O=C1NC(=O)C(c2c[nH]c3ccccc23)=C1c1c[nH]c2ccccc12              %               70
 4   COc1ccc(COc2ccc(Cc3cnc(N)nc3N)cc2OC)cc1              %               62
 5    O=C1NC(=O)c2c1c1c3ccccc3[nH]c1n1cncc21              %               71
 6  CCN(CC)CCNC(=O)c1c(C)[nH]c(/C=C2\C(=O)Nc3ccc(Cl)cc32)c1C              %               40
 7     O=c1cc(N2CCOCC2)oc2c(-c3ccccc3)cccc12              %               65
 8      COc1ccc(-c2cnc3c(-c4ccsc4)cnn3c2)cc1              %               87
 9  COc1cc2c(cc1OC)-c1n[nH]c(Nc3cccc(F)c3)c1C2              %               68
10  COc1ccc2c(c1)c(C1=C(c3c[nH]c4ccccc34)C(=O)NC1=O)cn2CCCN(C)C              %               56
11    N#Cc1c(NC(=O)c2cccc3ccccc23)sc2c1CCCC2              %               65
